What Maximum HMOX1 upregulation was measured for each of the following?
tested on: HMOX1 mRNA; experiment: HMOX1 (HO-1) mRNA upregulation in human bronchial epithelial cells (NHBE); type: cell-based; details: 48 hours post transfection, mean of 3 donors
Answers are plain numbers, in %.

Past entries and their recorded results:
29984-DC (sense GUUAAAGGAUUUGAACCUUTT; antisense AAGGUUCAAAUCCUUUAACUU; inverted abasic end caps, TT overhangs, modified nucleotides, further chemistry not given here) :: 153
29957-DC (sense GCAGUUACUUCCACUCAAGTT; antisense CUUGAGUGGAAGUAACUGCUU; inverted abasic end caps, TT overhangs, modified nucleotides, further chemistry not given here) :: 290

Now examine the next entry.
Which measured Maximum HMOX1 upregulation value corresponds to 29947-DC (sense GGAAUCCUGCUUUCAGUUUTT; antisense AAACUGAAAGCAGGAUUCCUU; inverted abasic caps (B), 2'-modified nucleotides, further chemistry not given here) ?
1566
